A collection of compounds and their measured TGI
- Tested on: SW-620 colon
- experimental.protocol: NCI tumour cell line growth inhibition, 48 h

The cases that follow already have their TGI on record.
Any idea what its TGI is? The compound is CCOC(=O)c1nc2c3c(ncn2n1)Oc1c(c(-c2ccccc2)nn1-c1ccccc1)C3c1ccc(OC)c(OC)c1 (centres undefined)
> 100 µM

Any idea what its TGI is? The compound is COc1ccc(-c2cc3c4c(nc5ccccc5c4c2)CC(c2cc(OC)c(OC)c(OC)c2)O3)cc1 (centres undefined)
> 100 µM

Any idea what its TGI is? The compound is Oc1c(OCc2nnc(CCCCCCCCc3nnc(COc4ccc5ccccc5c4O)n3Nc3ccccc3)n2Nc2ccccc2)ccc2ccccc12
24.6 µM

More entries:
Any idea what its TGI is? The compound is O=c1[nH]cnc2c1nnn2CCCn1nnc2c(=O)[nH]cnc21
> 100 µM
